# Procedure text: Inhibition of Trypanosoma cruzi carbonic anhydrase preincubated for 15 mins to 6 hrs by CO2 hydration stopped-flow assay
Readout kind: Ki (nM)

I: NS(=O)(=O)c1ccc(CNC(=O)Cc2ccc(Cl)cc2)cc1
II: COc1ccc(CC(=O)Nc2ccc(S(N)(=O)=O)cc2Cl)cc1
Lookup: # query: argmin of Ki over I and II API: response body contains the label of the selected item.
Found: II

1: NS(=O)(=O)c1ccc(NC(=O)Cc2ccccc2Br)cc1
2: NS(=O)(=O)c1ccc(CNC(=O)Cc2ccc(F)cc2)cc1
Lookup: # query: argmin of Ki over 1 and 2 API: response body contains the label of the selected item.
Found: 2

###

# Measured on: Carbonic anhydrase 1 (Homo sapiens, UniProt P00915)
# Sequence (P00915 whole entry): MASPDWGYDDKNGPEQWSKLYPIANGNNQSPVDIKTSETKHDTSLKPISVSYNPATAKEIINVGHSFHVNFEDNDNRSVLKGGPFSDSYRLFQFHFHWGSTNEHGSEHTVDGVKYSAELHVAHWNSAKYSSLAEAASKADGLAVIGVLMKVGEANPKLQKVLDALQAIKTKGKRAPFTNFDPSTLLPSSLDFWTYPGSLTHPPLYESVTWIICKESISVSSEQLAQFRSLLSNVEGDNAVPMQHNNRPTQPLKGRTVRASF
Readout kind: Ki (nM)
Answer format: numeric, nM implied, no suffix.

Lookup: // fetch Ki for NS(=O)(=O)c1ccc(CCNC(=O)Cc2ccc(Cl)cc2)cc1 ; system: Carbonic anhydrase 1 (Homo sapiens, UniProt P00915)
Found: 9.7

###

# Procedure text: Inhibition of Trypanosoma cruzi carbonic anhydrase preincubated for 15 mins to 6 hrs by CO2 hydration stopped-flow assay
pKi: −log10 of the molar value.
Readout kind: pKi

Below, each entry is followed by its recorded pKi result.
Lookup: Identify the reported pKi for the following entry. NS(=O)(=O)c1ccc(CCNC(=O)Cc2ccccc2Br)cc1
Found: 8.48

Lookup: Identify the reported pKi for the following entry. NS(=O)(=O)c1nnc(NC(=O)Cc2ccccc2Br)s1
Found: 9.08

Lookup: Identify the reported pKi for the following entry. NS(=O)(=O)c1ccc(NC(=O)Cc2ccccc2Br)c(Br)c1
Found: 7.96

Lookup: Identify the reported pKi for the following entry. NS(=O)(=O)c1nnc(NC(=O)Cc2ccc(Cl)cc2)s1
Found: 9.02

Lookup: Identify the reported pKi for the following entry. NS(=O)(=O)c1ccc(NC(=O)Cc2ccccc2Br)c(Cl)c1
Found: 8.11

P: NS(=O)(=O)c1nnc(NC(=O)Cc2ccc(F)cc2)s1
Q: COc1ccc(CC(=O)Nc2ccc(S(N)(=O)=O)cc2F)cc1
Lookup: # query: argmin of pKi over P and Q API: response body contains the label of the selected item.
Found: P

###

# Procedure text: Inhibition of Trypanosoma cruzi carbonic anhydrase preincubated for 15 mins to 6 hrs by CO2 hydration stopped-flow assay
Readout kind: Ki (nM)

Lookup: Identify the reported Ki for the following entry. COc1ccc(CC(=O)Nc2ccc(S(N)(=O)=O)cc2Br)cc1
Found: 7.2

Lookup: Identify the reported Ki for the following entry. NS(=O)(=O)c1ccc(NC(=O)Cc2ccc(F)cc2)c(F)c1
Found: 8.3

Lookup: Identify the reported Ki for the following entry. NS(=O)(=O)c1ccc(NC(=O)Cc2ccc(Cl)cc2)c(Cl)c1
Found: 7.7

Lookup: Identify the reported Ki for the following entry. NS(=O)(=O)c1ccc(NC(=O)Cc2ccc(F)cc2)c(Cl)c1
Found: 7

Lookup: Identify the reported Ki for the following entry. COc1ccc(CC(=O)NCc2ccc(S(N)(=O)=O)cc2)cc1
Found: 7.4

Lookup: Identify the reported Ki for the following entry. NS(=O)(=O)c1ccc(CNC(=O)Cc2ccccc2Br)cc1
Found: 9

Lookup: Identify the reported Ki for the following entry. NS(=O)(=O)c1ccc(NC(=O)Cc2ccc(F)cc2)c(Br)c1
Found: 9
